These data points were gathered from ChEMBL document CHEMBL3352386.

Tested on: Schistosoma japonicum
experimental details: Antischistosomal activity against juvenile Schistosoma japonicum assessed as vitality reduction at 50 uM after 24 hrs (reference value: 0%)
Type: functional
metric name: inhibition at 50 µM (%)
Express it in %; write the number only.

Sample O=C1CCC(C(=O)N2CC(=O)N3CCc4ccccc4[C@H]3C2)CC1 ; inhibition at 50 µM observed: 29.6

Sample O=C1CCC(C(=O)N2CC(=O)N3CCc4ccccc4[C@@H]3C2)CC1 ; inhibition at 50 µM observed: 60.5

Sample O=C1CC(C(=O)N2CC(=O)N3CCc4ccccc4[C@H]3C2)C1 ; inhibition at 50 µM observed: 30.9

Sample O=C1CCC(C(=O)N2CC(=O)N3CCc4ccccc4[C@H]3C2)C1 (some centres undefined) ; inhibition at 50 µM observed: 45.7

Sample O=C1CCC(C(=O)N2CC(=O)N3CCc4ccccc4C3C2)CC1 (racemic) ; inhibition at 50 µM observed: 35.8

Sample O=C1CC(C(=O)N2CC(=O)N3CCc4ccccc4[C@@H]3C2)C1 ; inhibition at 50 µM observed: 32.1

Sample O=C1CCC(C(=O)N2CC(=O)N3CCc4ccccc4[C@@H]3C2)C1 (some centres undefined) ; inhibition at 50 µM observed: 38.3

Sample O=C1CC(C(=O)N2CC(=O)N3CCc4ccccc4C3C2)C1 (racemic) ; inhibition at 50 µM observed: 35.8

Sample O=C1CCC(C(=O)N2CC(=O)N3CCc4ccccc4C3C2)C1 (racemic) ; inhibition at 50 µM observed: 55.6

====

System: Schistosoma japonicum
experimental details: Antischistosomal activity against adult Schistosoma japonicum assessed as worm survival at 100 uM after 24 hrs (reference value: 100%)
Format: functional
I'd be grateful if you could share measured survival at 100 µM for these entries.
Express it in %; write the number only.

Sample O=C1CCC(C(=O)N2CC(=O)N3CCc4ccccc4C3C2)C1 (racemic) ; survival at 100 µM observed: 100

Sample O=C1CCC(C(=O)N2CC(=O)N3CCc4ccccc4[C@@H]3C2)CC1 ; survival at 100 µM observed: 40

Sample O=C1CC(C(=O)N2CC(=O)N3CCc4ccccc4[C@H]3C2)C1 ; survival at 100 µM observed: 100

Sample O=C1CCC(C(=O)N2CC(=O)N3CCc4ccccc4C3C2)CC1 (racemic) ; survival at 100 µM observed: 100

Sample O=C1CC(C(=O)N2CC(=O)N3CCc4ccccc4C3C2)C1 (racemic) ; survival at 100 µM observed: 100

====

I'd be grateful if you could share measured survival at 50 µM for these entries.
Test system: Schistosoma japonicum
experimental details: Antischistosomal activity against adult Schistosoma japonicum assessed as worm survival at 50 uM after 48 hrs (reference value: 100%)
Type: functional

Sample O=C1CC(C(=O)N2CC(=O)N3CCc4ccccc4[C@H]3C2)C1 ; survival at 50 µM observed: 100%

Sample O=C1CCC(C(=O)N2CC(=O)N3CCc4ccccc4C3C2)CC1 (racemic) ; survival at 50 µM observed: 100%

Sample O=C1CCC(C(=O)N2CC(=O)N3CCc4ccccc4[C@H]3C2)C1 (stereo not given in full) ; survival at 50 µM observed: 100%

Sample O=C1CCC(C(=O)N2CC(=O)N3CCc4ccccc4[C@@H]3C2)CC1 ; survival at 50 µM observed: 80%

Sample O=C1CCC(C(=O)N2CC(=O)N3CCc4ccccc4[C@@H]3C2)C1 (stereo not given in full) ; survival at 50 µM observed: 100%
